# Assay Method Text: 5-day cytotoxicity assay with Cell Titer Glo readout, MT4
# Assay type: cell-based
# Condition: human
CC50 at 5 day values by entry
Measure: CC50 at 5 day (µM)

>  <Compound>
O=C(/C=C(\O)c1nnn[nH]1)c1c[nH]c2ccc(Cl)cc12 [p8, 5-CITEP]

>  <Measure>
CC50 at 5 day

>  <Measurement Qualifier>
>

>  <Reading>
50

$$$$
>  <Compound>
C[C@@H]1CCO[C@H]2Cn3cc(C(=O)NCc4ccc(F)cc4F)c(=O)c(O)c3C(=O)N12 [DTG, dolutegravir]

>  <Measure>
CC50 at 5 day

>  <Measurement Qualifier>
=

>  <Reading>
7.53

$$$$
>  <Compound>
COc1ccc(C[C@H](N)C(=O)N[C@H]2[C@@H](O)[C@H](n3cnc4c(N(C)C)ncnc43)O[C@@H]2CO)cc1 [Puromycin]

>  <Measure>
CC50 at 5 day

>  <Measurement Qualifier>
=

>  <Reading>
0.21

$$$$
>  <Compound>
C[C@H]1CO[C@@H]2Cn3cc(C(=O)NCc4ccc(F)cc4F)c(=O)c(O)c3C(=O)N12 [CAB, cabotegravir]

>  <Measure>
CC50 at 5 day

>  <Measurement Qualifier>
=

>  <Reading>
5.25

$$$$
>  <Compound>
O=C(NCc1c(F)cc(F)cc1F)c1cn2c(c(O)c1=O)C(=O)N1[C@H]3CC[C@H](C3)O[C@@H]1C2 [BIC, bictegravir]

>  <Measure>
CC50 at 5 day

>  <Measurement Qualifier>
=

>  <Reading>
2.59

$$$$
>  <Compound>
COc1cc2c(cc1Cc1cccc(Cl)c1F)c(=O)c(C(=O)O)cn2[C@H](CO)C(C)C [EVG, elvitegravir]

>  <Measure>
CC50 at 5 day

>  <Measurement Qualifier>
=

>  <Reading>
3.75

$$$$

###

# Assay Method Text: 5-day cytotoxicity assay with Cell Titer Glo readout, MT4
# Assay type: cell-based
# Condition: human; MT4, 5-day, Cell Titer Glo; read-out: CC50
# Text: Supplemental Table S2. CC50 values for INSTIs in 5- day cytotoxicity as says with Cell Titer Expi293F GALPC3 GALHEP HUH7 MRC5 MT4 PBMC PBMC Kidney Prostate Hepatoma Hepatoma Lung T-cell line Primary Primary (embryonic) cancer cell cell line cell line fibroblast cells
Measure: CC50 at 5 day

>  <Compound>
Cc1nnc(C(=O)NC(C)(C)c2nc(C(=O)NCc3ccc(F)cc3)c(O)c(=O)n2C)o1 [RAL, raltegravir]

>  <Measure>
CC50 at 5 day

>  <Reading>
> 50 µM

$$$$
